# Test system: ATP;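 note: ATP exposure 15 min at 22 °C before imaging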
# Protocol description: switch fluorescence ratio, 500 uM ATP over buffer (Cy3 cluster intensity, sum of 5 cycles each) (fold (ratio)); higher = stronger signal-on switching upon ATP binding; sequences stand for … in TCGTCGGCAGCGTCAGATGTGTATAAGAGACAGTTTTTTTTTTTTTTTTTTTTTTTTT…TC
# Test parameters: aptamer strand: ATP DNA aptamer (quencher-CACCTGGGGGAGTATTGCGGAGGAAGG + anchor), 100 nM annealed; ATP concentration: 500 uM
Quantity: switch fluorescence ratio
I'd appreciate a reply containing only the number, no unit.

// sample `TTTATTGGTT` , its switch fluorescence ratio was 1.07

// sample `GCGTTGTGTG` , its switch fluorescence ratio was 1.02

// sample `TTAATCTGTA` , its switch fluorescence ratio was 0.99

// sample `CATAGGTTTT` , its switch fluorescence ratio was 1.03

// sample `TTAGGAGGTT` , its switch fluorescence ratio was 0.965

// sample `TTTATGAGGA` , its switch fluorescence ratio was 1.02

// sample `TTGTAGCGGT` , its switch fluorescence ratio was 1.05

// sample `CGACGACAGG` , its switch fluorescence ratio was 1.35

// sample `TTTTGGAGGG` , its switch fluorescence ratio was 1.01

// sample `GAGTTCGGGG` , its switch fluorescence ratio was 0.987

// sample `TCATCAGGCC` , its switch fluorescence ratio was 1.02

// sample `TTGAGGGAGG` , its switch fluorescence ratio was 1

// sample `TACGAATGAG` , its switch fluorescence ratio was 0.985

// sample `CGATTCTTTT` , its switch fluorescence ratio was 0.979

// sample `CCTGGGCCTT` , its switch fluorescence ratio was 1.01

// sample `GGGTCTGGTT` , its switch fluorescence ratio was 0.976

// sample `TAAAATGAGG` , its switch fluorescence ratio was 0.987

// sample `AGTTTGGGAG` , its switch fluorescence ratio was 0.992

// sample `TATATTAAGA` , its switch fluorescence ratio was 1.01

// sample `GGGTTGGGGG` , its switch fluorescence ratio was 1

// sample `TGTGTTGTCA` , its switch fluorescence ratio was 1.01

// sample `GGACACCGGG` , its switch fluorescence ratio was 1.04

// sample `AATAGGATCG` , its switch fluorescence ratio was 1.01

// sample `ATTTCAGGGA` , its switch fluorescence ratio was 0.978

// sample `CAAATACGTT` , its switch fluorescence ratio was 1.01

// sample `AGGGAATAGG` , its switch fluorescence ratio was 1.01

// sample `GGGTTTGGCT` , its switch fluorescence ratio was 1.01

// sample `TGTCAGGGCA` , its switch fluorescence ratio was 1.02

// sample `TGTTACAGAG` , its switch fluorescence ratio was 1.01

// sample `GGGGGAACCA` , its switch fluorescence ratio was 0.999

// sample `TTTATTCAGG` , its switch fluorescence ratio was 1.02

// sample `AAGGGATCTG` , its switch fluorescence ratio was 0.976

// sample `TTACTGGGGG` , its switch fluorescence ratio was 0.999

// sample `AGTTTTGAGA` , its switch fluorescence ratio was 0.983

// sample `TCTGGGCCGG` , its switch fluorescence ratio was 0.989

// sample `AGTAATATTT` , its switch fluorescence ratio was 1.03

// sample `TAGTGAGGGT` , its switch fluorescence ratio was 1.01

// sample `TCATATACGC` , its switch fluorescence ratio was 1.1

// sample `TCTTAAGAGT` , its switch fluorescence ratio was 0.999

// sample `GATTGGTGTT` , its switch fluorescence ratio was 0.956

// sample `CGATACGTTG` , its switch fluorescence ratio was 0.99

// sample `TAGTTATTTG` , its switch fluorescence ratio was 0.993

// sample `GCCATGGCGT` , its switch fluorescence ratio was 1.02
